Molecular target: Disintegrin and metalloproteinase domain-containing protein 17 (Homo sapiens, UniProt P78536)
Sequence (P78536 whole entry, the tested form may be a part): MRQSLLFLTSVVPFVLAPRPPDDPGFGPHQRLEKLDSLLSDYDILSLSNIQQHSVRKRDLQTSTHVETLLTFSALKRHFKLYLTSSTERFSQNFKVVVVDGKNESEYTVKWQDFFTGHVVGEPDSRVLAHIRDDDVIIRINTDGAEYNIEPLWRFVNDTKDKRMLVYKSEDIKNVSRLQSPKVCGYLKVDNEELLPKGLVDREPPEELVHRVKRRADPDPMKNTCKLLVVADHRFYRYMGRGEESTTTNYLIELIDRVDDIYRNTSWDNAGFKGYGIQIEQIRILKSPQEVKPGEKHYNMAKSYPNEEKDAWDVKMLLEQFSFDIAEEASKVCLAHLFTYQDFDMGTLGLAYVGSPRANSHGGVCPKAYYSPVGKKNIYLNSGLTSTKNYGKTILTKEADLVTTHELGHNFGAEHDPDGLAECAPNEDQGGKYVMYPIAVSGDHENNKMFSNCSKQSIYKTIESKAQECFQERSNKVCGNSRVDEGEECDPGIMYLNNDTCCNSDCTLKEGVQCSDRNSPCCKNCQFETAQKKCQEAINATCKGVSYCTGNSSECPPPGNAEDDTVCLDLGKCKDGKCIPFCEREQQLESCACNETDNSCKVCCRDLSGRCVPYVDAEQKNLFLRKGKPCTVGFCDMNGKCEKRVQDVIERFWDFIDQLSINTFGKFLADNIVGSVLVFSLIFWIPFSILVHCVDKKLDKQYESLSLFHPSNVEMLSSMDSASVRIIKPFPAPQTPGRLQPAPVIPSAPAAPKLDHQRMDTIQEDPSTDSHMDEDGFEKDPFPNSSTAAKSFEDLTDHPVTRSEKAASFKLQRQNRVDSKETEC
Assay: Inhibition of LPS-stimulated TNF production in THP cells at 3 uM
Type: functional, cell-based
RECORDED METRIC: inhibition

{"columns": ["STRUCTURE", "RECORDED METRIC", "VALUE REPORTED"],
 "data": [
  ["CC(C)(C)OC(=O)NCC#CCOc1ccc(S(=O)(=O)N2CCSC(C)(C)[C@@H]2C(=O)NO)cc1", "inhibition", "79%"],
  ["CCCCC#CCOc1ccc(S(=O)(=O)N2CCSC(C)(C)[C@@H]2C(=O)NO)cc1", "inhibition", "82%"],
  ["C/C=C/COc1ccc(S(=O)(=O)N2CCSC(C)(C)[C@@H]2C(=O)NO)cc1", "inhibition", "80%"]
]}
